For each entry below, report its Residual amount (%) of test compound after 1 hour of reaction, Human value.
Test: Metabolic stability in human liver microsomes
Format: in vitro ADME
Conditions: 5 μM compound, 1 mg/mL human liver microsomes, 37° C., NADPH regenerating system
Answers are plain numbers, in %.

In the examples that follow, each entry is paired with its recorded Residual amount (%) of test compound after 1 hour of reaction, Human.
molecule	scale unit	val
Cc1cc(C)c(CN2CCc3c(Cl)c4c(c(C)c3C2=O)OC(C)([C@H]2CC[C@@H](N(C)C)CC2)O4)c(=O)[nH]1 (some centres unmarked) [Compound 12]	%	57
Cc1cc(C)c(CN2CCc3c(Br)c4c(c(C)c3C2=O)OC(C)([C@H]2CC[C@H](N(C)C)CC2)O4)c(=O)[nH]1 (single isomer, unassigned) [Compound 49]	%	67

Batch of 3 molecules: report Residual amount (%) of test compound after 1 hour of reaction, Human for each.
1. Cc1cc(C)c(CN2CCc3c(Br)c4c(c(C)c3C2=O)OC(C)([C@H]2CC[C@H](N(C)C)CC2)O4)c(=O)[nH]1 (some centres unmarked) [Compound 48]
2. COc1cc(C)[nH]c(=O)c1CN1CCc2c(Cl)c3c(c(C)c2C1=O)OC(C)([C@H]1CC[C@H](N(C)C)CC1)O3 (some centres unmarked) [Compound 13]
3. CN[C@H]1CC[C@H](C2(C)Oc3c(C)c4c(c(Br)c3O2)CCN(Cc2c(C)cc(C)[nH]c2=O)C4=O)CC1 (some centres unmarked) [Compound 51]

1: 54; 2: 82; 3: 70

----------
Tested on: KARPAS-422 (EZH2 Y641N mutation)
Experiment: Cell growth inhibition test, KARPAS-422
Assay type: cell-based
Conditions: KARPAS-422, culture time 7 days; read-out: Cell growth inhibitory activity (GI50, nM) KARPAS-422 (EZH2 Y641N mutation)
Would you mind telling me the reported GI50 of each entry?
Numbers only, in nM.

molecule	GI50 / nM
Cc1cc(C)c(CN2CCc3c(Br)c4c(c(C)c3C2=O)OC(C)([C@H]2CC[C@H](N(C)C)CC2)O4)c(=O)[nH]1 (single isomer, unassigned) [Compound 50]	419

Next, consider the following molecule.
Suppose we examine the molecule Cc1cc(C)c(CN2CCc3c(C)c4c(c(C)c3C2=O)OC(C)([C@H]2CC[C@H](N(C)C)CC2)O4)c(=O)[nH]1 (single isomer, unassigned) [Compound 41] ; what GI50 value has been reported?
69

----------
Could you please report measured IC50 for the items listed next?
Target: EZH1 (Homo sapiens, UniProt Q92800)
Construct: purchased Reaction Biology Corp. (contract assay)
Sequence (Q92800 whole entry): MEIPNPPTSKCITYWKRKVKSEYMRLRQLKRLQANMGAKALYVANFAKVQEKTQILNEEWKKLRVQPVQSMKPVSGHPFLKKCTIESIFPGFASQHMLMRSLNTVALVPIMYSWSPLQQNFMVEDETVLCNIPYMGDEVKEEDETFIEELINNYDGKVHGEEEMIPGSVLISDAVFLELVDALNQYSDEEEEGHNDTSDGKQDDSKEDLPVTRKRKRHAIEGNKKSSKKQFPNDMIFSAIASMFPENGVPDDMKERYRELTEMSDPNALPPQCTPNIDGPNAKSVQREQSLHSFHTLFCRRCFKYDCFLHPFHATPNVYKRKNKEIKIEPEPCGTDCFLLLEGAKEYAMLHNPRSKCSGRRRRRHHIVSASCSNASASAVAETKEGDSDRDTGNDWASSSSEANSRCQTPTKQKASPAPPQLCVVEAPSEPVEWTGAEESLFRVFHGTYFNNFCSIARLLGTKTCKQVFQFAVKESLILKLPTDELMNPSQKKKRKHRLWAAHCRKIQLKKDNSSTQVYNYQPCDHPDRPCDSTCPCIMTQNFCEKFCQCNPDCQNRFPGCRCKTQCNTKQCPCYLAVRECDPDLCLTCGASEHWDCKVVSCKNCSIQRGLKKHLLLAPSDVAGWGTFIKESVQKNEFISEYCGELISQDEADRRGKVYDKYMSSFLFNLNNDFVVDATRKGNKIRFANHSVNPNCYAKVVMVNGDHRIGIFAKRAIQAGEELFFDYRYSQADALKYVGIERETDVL
Sequence (O75530 whole entry partner): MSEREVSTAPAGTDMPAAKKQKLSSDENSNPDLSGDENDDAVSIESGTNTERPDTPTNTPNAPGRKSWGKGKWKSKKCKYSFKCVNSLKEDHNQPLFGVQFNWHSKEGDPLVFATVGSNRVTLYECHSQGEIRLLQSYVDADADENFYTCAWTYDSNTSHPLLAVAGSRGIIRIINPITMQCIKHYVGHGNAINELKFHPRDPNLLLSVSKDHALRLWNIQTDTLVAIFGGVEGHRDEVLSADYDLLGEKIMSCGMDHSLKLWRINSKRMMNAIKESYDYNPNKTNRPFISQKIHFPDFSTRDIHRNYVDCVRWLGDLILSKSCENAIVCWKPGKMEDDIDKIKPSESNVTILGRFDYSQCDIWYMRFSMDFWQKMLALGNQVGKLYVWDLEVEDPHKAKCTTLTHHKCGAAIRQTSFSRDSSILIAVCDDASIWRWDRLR
Sequence (Q15022 whole entry partner): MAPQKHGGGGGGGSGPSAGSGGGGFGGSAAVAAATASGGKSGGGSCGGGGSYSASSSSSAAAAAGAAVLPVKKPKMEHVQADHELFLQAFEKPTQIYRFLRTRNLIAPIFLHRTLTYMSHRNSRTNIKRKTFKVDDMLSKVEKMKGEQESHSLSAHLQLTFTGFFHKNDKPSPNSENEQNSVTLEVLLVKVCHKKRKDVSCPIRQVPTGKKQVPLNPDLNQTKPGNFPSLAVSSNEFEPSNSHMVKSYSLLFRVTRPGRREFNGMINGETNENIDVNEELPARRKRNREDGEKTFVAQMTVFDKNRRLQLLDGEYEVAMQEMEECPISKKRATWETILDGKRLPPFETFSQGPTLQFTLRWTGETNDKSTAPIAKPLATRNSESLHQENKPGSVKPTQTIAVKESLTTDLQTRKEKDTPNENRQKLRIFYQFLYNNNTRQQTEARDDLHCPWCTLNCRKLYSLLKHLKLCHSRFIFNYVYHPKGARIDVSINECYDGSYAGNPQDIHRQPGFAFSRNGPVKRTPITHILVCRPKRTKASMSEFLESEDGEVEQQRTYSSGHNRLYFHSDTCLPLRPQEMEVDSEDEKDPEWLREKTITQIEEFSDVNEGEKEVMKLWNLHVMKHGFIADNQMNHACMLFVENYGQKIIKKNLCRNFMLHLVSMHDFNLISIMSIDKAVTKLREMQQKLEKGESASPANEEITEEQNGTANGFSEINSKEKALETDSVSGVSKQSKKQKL
Sequence (Q09028 whole entry partner): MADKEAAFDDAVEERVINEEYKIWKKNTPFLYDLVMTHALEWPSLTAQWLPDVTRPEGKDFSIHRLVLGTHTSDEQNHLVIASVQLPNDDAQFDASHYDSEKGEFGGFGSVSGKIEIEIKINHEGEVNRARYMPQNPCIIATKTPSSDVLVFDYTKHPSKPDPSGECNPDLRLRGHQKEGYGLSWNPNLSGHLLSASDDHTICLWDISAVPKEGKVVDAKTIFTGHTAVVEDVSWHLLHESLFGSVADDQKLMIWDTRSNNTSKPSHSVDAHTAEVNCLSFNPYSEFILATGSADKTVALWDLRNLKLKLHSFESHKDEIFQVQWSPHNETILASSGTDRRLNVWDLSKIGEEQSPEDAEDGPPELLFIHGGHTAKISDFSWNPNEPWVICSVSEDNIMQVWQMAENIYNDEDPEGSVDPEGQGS
Sequence (Q6ZN18 whole entry partner): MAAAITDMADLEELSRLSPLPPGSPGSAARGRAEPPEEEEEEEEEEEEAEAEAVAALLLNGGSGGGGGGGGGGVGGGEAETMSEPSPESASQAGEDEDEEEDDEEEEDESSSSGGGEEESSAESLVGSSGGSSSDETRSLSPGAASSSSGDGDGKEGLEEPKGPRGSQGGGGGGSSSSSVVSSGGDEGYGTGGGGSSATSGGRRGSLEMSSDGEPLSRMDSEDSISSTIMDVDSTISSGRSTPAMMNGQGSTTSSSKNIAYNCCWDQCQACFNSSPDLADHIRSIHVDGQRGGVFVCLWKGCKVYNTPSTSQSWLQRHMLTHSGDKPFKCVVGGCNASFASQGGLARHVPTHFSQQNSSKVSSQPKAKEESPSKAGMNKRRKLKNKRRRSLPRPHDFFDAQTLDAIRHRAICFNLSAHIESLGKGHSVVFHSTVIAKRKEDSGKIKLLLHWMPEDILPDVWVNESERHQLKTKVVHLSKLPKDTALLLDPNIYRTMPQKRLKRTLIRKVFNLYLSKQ
Assay: Inhibitory activity against EZH1 methyltransferase (radiometric scintillation proximity assay);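 also: Read-out is methylation of a substrate peptide, captured on streptavidin-coated SPA beads and counted by scintillation, in Tris-HCl buffer at pH 8.0 with 1% DMSO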
Format: biochemical
Conditions: 2.3 nmol/L enzyme, 90 minutes, room temperature
One number for each entry, in nM.

molecule	scale unit	val
Cc1cc(C)c(CN2CCc3cc4c(cc3C2=O)OC(C)([C@H]2CC[C@H](N(C)C)CC2)O4)c(=O)[nH]1 (some centres unmarked)	nM	371
Cc1cc(C)c(CN2CCc3c(Cl)c4c(c(C)c3C2=O)OC(C)(C2CCCCC2)O4)c(=O)[nH]1 (centres unmarked)	nM	180
CCN(CC)[C@H]1CC[C@H](C2(C)Oc3c(C)c4c(c(C)c3O2)C(=O)N(Cc2c(OC)cc(C)[nH]c2=O)CC4)CC1 (some centres unmarked)	nM	16

I need IC50 for every entry listed below, if you could help.
1. Cc1cc(C)c(CN2CCc3c(C)c4c(c(C)c3C2=O)OC(C)(C2CCCCC2)O4)c(=O)[nH]1 (centres unmarked)
2. CCN(C)[C@H]1CC[C@H](C2(C)Oc3c(C)c4c(c(C)c3O2)C(=O)N(Cc2c(OC)cc(C)[nH]c2=O)CC4)CC1 (some centres unmarked)
3. Cc1cc(C)c(CN2CCc3c(Cl)c4c(c(C)c3C2=O)OC(C)(c2ccc(N(C)C)cc2)O4)c(=O)[nH]1 (centres unmarked)
4. Cc1cc(C)c(CN2CCc3c(Cl)c4c(c(C)c3C2=O)OC(C)(C[C@H]2CC[C@H](N)CC2)O4)c(=O)[nH]1 (some centres unmarked)

[34, 20, 166, 48]
